# Test system: WI-38
# PROTOCOL_DESCRIPTION: Antiproliferative activity against human WI38 cells after 4 days by crystal violet staining based spectrophotometric method
# Type: ADME, cell-based
# CONDITION_PARAMETERS: WI-38, 96 h
Give pIC50 for every item shown.
Numbers only, as −log10 of the molar value.

The cases that follow already have their pIC50 on record.
{"columns": ["MOLECULE", "MEASURE", "REPORTED_RESULT"],
 "data": [
  ["COc1cccc2c1OP(=S)(c1ccccc1)O2 (configuration not stated)", "pIC50", 4.39],
  ["S=P1(c2ccccc2)NCc2ccccc2N1 (configuration not stated)", "pIC50", 3.76],
  ["S=P1(c2ccccc2)OCc2cccc3cccc(c23)CO1", "pIC50", 4.12]
]}

Record pIC50 for all entries; do not skip any.
1. COc1ccc(P2(=O)Oc3ccccc3-c3ccccc3O2)cc1
2. S=P1(c2ccccc2)N[C@@H](c2ccccc2)[C@H](c2ccccc2)N1
3. Cc1ccc(S(=O)(=O)N2c3ccccc3OP2(=S)c2ccccc2)cc1 (configuration not stated)
4. S=P1(c2ccc(Oc3ccccc3)cc2)Nc2ccccc2CO1 (configuration not stated)
5. COc1ccc(P2(=S)Oc3ccccc3-c3ccccc3O2)cc1

1. 4.73
2. 3.84
3. 3.45
4. 3.97
5. 5.86

###

# PROTOCOL_DESCRIPTION: Drug metabolism in pH 7.4 PBS buffer assessed as H2S release from compound at 5 mM incubated for 4 days by DNS-Az probe based fluorescence assay
# Format: physicochemical
# CONDITION_PARAMETERS: pH 7.4, 96 h, 5000 µM
MEASURE: H2S released

{"columns": ["CHEMICAL_STRUCTURE", "MEASURE", "REPORTED_RESULT"],
 "data": [
  ["COc1ccc(P2(=S)Oc3ccc(Br)cc3-c3cc(Br)ccc3O2)cc1", "H2S released", "Not Active"],
  ["COc1ccc(P2(=S)Oc3ccccc3-c3ccccc3O2)cc1", "H2S released", "2 µM"],
  ["S=P1(c2ccccc2)Oc2ccccc2-c2ccccc2O1", "H2S released", "Not Active"],
  ["COc1ccc(P2(=S)OC[C@@H]3OC(C)(C)O[C@H]3CO2)cc1", "H2S released", "Not Active"]
]}

###

# PROTOCOL_DESCRIPTION: Permeability of the compound by PAMPA
# Format: physicochemical
# CONDITION_PARAMETERS: read-out: permeability
MEASURE: Papp (×10⁻⁶ cm/s)
One number for each entry, in ×10⁻⁶ cm/s.

Reported Papp, molecule S=P(S)(NCc1ccccc1)c1ccc(Oc2ccccc2)cc1 (stereo unspecified) : ____
1.9

###

Give measured pIC50 for each item. Keep answers brief.
# System: WI-38
# PROTOCOL_DESCRIPTION: Antiproliferative activity against human WI38 cells after 4 days by crystal violet staining based spectrophotometric method
# Format: ADME, cell-based
# CONDITION_PARAMETERS: WI-38, 96 h
Answers are plain numbers, as −log10 of the molar value.

For orientation, consider the following solved cases.
{"columns": ["COMPOUND", "REPORTED_RESULT"],
 "data": [
  ["S=P1(c2ccccc2)Oc2ccccc2-c2ccccc2O1", 3.40],
  ["S=P1(c2ccccc2)OCc2ccccc2CO1", 3.87],
  ["COc1ccc(P2(=S)Oc3ccccc3O2)cc1", 3.60],
  ["COc1ccc(P2(=S)Nc3ccccc3CO2)cc1 (centres undefined)", 3.41],
  ["S=P(S)(NCc1ccccc1)c1ccc(Oc2ccccc2)cc1 (centres undefined)", 3.98]
]}

Let us examine a further case.
Form entry - test system: WI-38; read-out: pIC50; compound: S=P1(c2ccc(Oc3ccccc3)cc2)Nc2ccccc2O1 (centres undefined)
3.90
